assay: Half life in human serum measured upto 30 min by HPLC analysis
property label: half-life at 0.5 h (min)
Report the value in min with no unit label.

Endpoint output: half-life at 0.5 h of CCCC(=O)[O-].[Na+] [SODIUM BUTYRATE] . Value?
6

====

assay: Activation of rabbit psoas fast skeletal Myofibril; assay type: tissue-based, Oryctolagus cuniculus, Muscle tissue
property label: EC50 (µM)
Report the value in µM with no unit label.

Endpoint output: EC50 of C#Cc1cnc2nc(O)n(C(CC)CC)c2n1 . Value?
3.4

====

assay: Aqueous solubility of compound at pH 7.4; assay type: physicochemical; conditions: buffer
property label: solubility (µM)
Report the value in µM with no unit label.

COc1cc2c(c(OC)c1OC)C(c1cc(Br)ccc1F)CC(=O)N2 (centres undefined)    4
CC(C)c1cc(C(=O)Nc2ccccn2)no1    77
CC(C)c1cc(C(=O)Nc2ccccc2)no1    59

Pending compound:
Endpoint output: solubility of CC(C)c1cc(C(=O)Nc2ccc(F)c(Cl)c2)no1 . Value?
6

====

Below, each entry is listed alongside its reported half-life.
assay: Half life in mouse liver microsomes; assay type: ADME, Microsome

Solved entries:
CC(C)c1cc(C(=O)Nc2ccccn2)no1    > 120 min
CC(C)c1cc(C(=O)Nc2ccc(F)c(Cl)c2)no1    5 min
CC(C)c1cc(C(=O)Nc2ccccc2)no1    5 min

Pending compound:
Endpoint output: half-life of COc1cc2c(c(OC)c1OC)C(c1cc(Br)ccc1F)CC(=O)N2 (centres undefined) . Value?
40 min

====

test: AUClast in Spinal muscular atrophy mouse plasma at 10 mg/kg, po by LC/MS-MS analysis; type: ADME, organism-based; design: dose 10 mg/kg, route po
property label: AUC(0-t) (ng·h/mL)
Report the value in ng·h/mL with no unit label.

Endpoint output: AUC(0-t) of Nc1nc(N)c2c(OCC3CCN(Cc4c(Cl)cccc4Cl)CC3)cccc2n1 . Value?
157

====

assay: AUClast in Spinal muscular atrophy mouse brain at 10 mg/kg, po by LC/MS-MS analysis; type: ADME, organism-based; parameters: dose 10 mg/kg, route po
property label: AUC(0-t) (ng·h/mL)
Report the value in ng·h/mL with no unit label.

Endpoint output: AUC(0-t) of Nc1nc(N)c2c(OCC3CCN(Cc4c(Cl)cccc4Cl)CC3)cccc2n1 . Value?
6760

====

test: Increase in SMN2 expression in human HEK293 cells assessed as luciferase reporter activity incubated for 24 hrs
property label: EC50 at 24 h (µM)
Report the value in µM with no unit label.

Endpoint output: EC50 at 24 h of COc1cc2c(c(OC)c1OC)C(c1cc(Br)ccc1F)CC(=O)N2 (stereo unspecified) . Value?
8.3
